Protocol details: chemical genetic growth profiling, strain panel (AID 1159580);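 also: tested at 20 µM; growth read once vehicle control cultures reached saturation at 30 °C; 1 = growth at the plate median or of vehicle wells; lower values mean less growth of the strain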
Test parameters: S. cerevisiae deletion strains, growth OD, locus YNL250W, strain rad50
The campaign covered roughly 5,500 compounds. About 2,000 (36%) were called active. Another 18% or so got no clear call; they are omitted. Rule as the data show it: active = normalized growth mostly below about 0.91 (no sharp cut-off); inconclusive = no clear call, values can overlap the other calls; inactive = mostly above about 0.92. The list shows a part of the results.
Would you mind answering with one of these outcomes? true (1) (active), false (0) (inactive)

CCN(CC)CCOC(=O)C(c1ccccc1)c1ccccc1 :: false (0)
CN(C)N=Nc1nc[nH]c1C(N)=O :: false (0)
COc1cc([C@H]2Oc3cc([C@H]4Oc5cc(O)cc(O)c5C(=O)[C@@H]4O)ccc3O[C@@H]2CO)ccc1O :: false (0)
Cc1nc2sccn2c(=O)c1CCN1CCC(=C(c2ccc(F)cc2)c2ccc(F)cc2)CC1 :: false (0)
CC(CCC(=O)O)[C@H]1CCC2C3CC[C@@H]4CCCC[C@]4(C)C3CC[C@@]21C (some centres undefined) :: false (0)
CC(=O)Nc1ccccc1 :: false (0)
O=C(Nc1ccccc1)Nc1ccccc1 :: false (0)
Cc1nc2ccccn2c(=O)c1CCN1CCC(C(=O)c2ccc(F)cc2)CC1 :: false (0)

INPUT: Assay result, entry O=C(O)c1ccccc1C(=O)Nc1ccc(S(=O)(=O)Nc2nccs2)cc1 — outcome?
OUTPUT: false (0)

INPUT: Assay result, entry O=C(O)CCCOc1ccc(Cl)cc1Cl — outcome?
OUTPUT: false (0)

INPUT: Assay result, entry CC(CCC(=O)O)[C@H]1CCC2C3C(C[C@H](O)[C@@]21C)[C@@]1(C)CC[C@@H](O)C[C@H]1C[C@H]3O (some centres undefined) — outcome?
OUTPUT: false (0)
